molecular target: Human PPARα (Homo sapiens, UniProt Q07869); construct: host or cells: proprietary non-human mammalian cells; assay: Human PPARα Reporter Assay (luciferase); format: cell-based; details: antagonist activity, luciferase reporter cells, overnight incubation; read-out: Human PPARα Reporter Assay-Luciferase IC50
Property: pIC50
Numbers only, as −log10 of the molar value.

// worked examples, pIC50 included
• CCOc1ccc(-c2cccc(CCCc3nn(Cc4ccc(C(C)(C)C)cc4)c(=O)n3CC)c2)cc1CC(=O)O = 7.24
• CCn1c(CCCc2cccc(-c3ccc(C(=O)O)cc3)c2)nn(Cc2ccc(C(C)(C)C)cc2)c1=O = 6.96
• CCn1c(CCCc2cccc(-c3ccc(OC)c(CC(=O)O)c3)n2)nn(Cc2ccc(C(C)(C)C)cc2)c1=O = 5.60
• CCCOc1ccc(-c2cccc(CCCc3nn(Cc4ccc(C(C)(C)C)cc4)c(=O)n3CC)c2)cc1C(=O)O = 6.92
• CCOc1ccc(-c2cccc(C(F)(F)CCc3nn(Cc4ccc(C(C)(C)C)cc4)c(=O)n3CC)c2)cc1CC(=O)O = 7.19

Provide pIC50 values for the following items, in order.
1. CCOc1ccc(-c2cc(CCCc3nn(Cc4ccc(C(C)(C)C)cc4)c(=O)n3CC)ncn2)cc1CC(=O)O
2. CCn1c(CCCc2cccc(-c3cccc(-c4nnn[nH]4)c3)c2)nn(Cc2ccc(C(C)(C)C)cc2)c1=O
3. CCn1c(CCCc2cccc(-c3ccc(OCC4CC4)c(CC(=O)O)c3)c2)nn(Cc2ccc(C(C)(C)C)cc2)c1=O
4. CCn1c(CCCc2cccc(-c3cccc(CNS(=O)(=O)c4ccccc4)c3)c2)nn(Cc2ccc(C(C)(C)C)cc2)c1=O

[5.46, 5.64, 6.85, 6.05]

###

target: Human PPARα (Homo sapiens); construct: host or cells: proprietary non-human mammalian cells; assay: Human PPARα Reporter Assay (luciferase); type: cell-based; conditions: counterscreen assay results table; read-out: PPAR alpha IC50
Property: IC50 (nM)
Answers are plain numbers, in nM.

Which IC50 value belongs to CCOc1ccc(-c2cccc(CCCc3nn(Cc4ccc(C(C)(C)C)cc4)c(=O)n3CC)c2)cc1CC(=O)O ? 58

###

target: Estrogen Receptor β (Homo sapiens, UniProt Q92731); experiment: Target selectivity counterscreen, Estrogen Receptor β reporter assay; settings: receptor agonist at ~EC80
Sequence (Q92731 whole entry): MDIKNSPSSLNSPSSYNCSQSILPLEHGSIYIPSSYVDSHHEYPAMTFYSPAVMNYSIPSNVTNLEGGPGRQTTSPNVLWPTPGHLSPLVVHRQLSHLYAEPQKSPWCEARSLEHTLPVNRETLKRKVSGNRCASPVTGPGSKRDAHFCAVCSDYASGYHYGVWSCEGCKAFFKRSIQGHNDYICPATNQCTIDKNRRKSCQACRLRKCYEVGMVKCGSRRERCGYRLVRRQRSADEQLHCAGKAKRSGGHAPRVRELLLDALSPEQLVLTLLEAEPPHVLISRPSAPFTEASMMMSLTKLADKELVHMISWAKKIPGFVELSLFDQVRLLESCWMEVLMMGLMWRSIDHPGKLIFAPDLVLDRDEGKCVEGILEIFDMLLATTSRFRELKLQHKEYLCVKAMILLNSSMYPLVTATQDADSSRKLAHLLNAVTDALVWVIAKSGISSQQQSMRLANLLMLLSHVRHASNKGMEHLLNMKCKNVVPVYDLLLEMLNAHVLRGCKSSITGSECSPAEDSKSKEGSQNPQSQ
Property: pIC50
One number for each entry, as −log10 of the molar value.

Enter reported pIC50 observed with Estrogen Receptor β (Homo sapiens, UniProt Q92731) for CCOc1ccc(-c2cccc(CCCc3nn(Cc4ccc(C(C)(C)C)cc4)c(=O)n3CC)c2)cc1CC(=O)O [Example 6] 4.71

###

Biological target: Glucocorticoid Receptor (Homo sapiens, UniProt P04150)
Construct: host or cells: engineered reporter cells of the kit
Sequence (P04150 1-777): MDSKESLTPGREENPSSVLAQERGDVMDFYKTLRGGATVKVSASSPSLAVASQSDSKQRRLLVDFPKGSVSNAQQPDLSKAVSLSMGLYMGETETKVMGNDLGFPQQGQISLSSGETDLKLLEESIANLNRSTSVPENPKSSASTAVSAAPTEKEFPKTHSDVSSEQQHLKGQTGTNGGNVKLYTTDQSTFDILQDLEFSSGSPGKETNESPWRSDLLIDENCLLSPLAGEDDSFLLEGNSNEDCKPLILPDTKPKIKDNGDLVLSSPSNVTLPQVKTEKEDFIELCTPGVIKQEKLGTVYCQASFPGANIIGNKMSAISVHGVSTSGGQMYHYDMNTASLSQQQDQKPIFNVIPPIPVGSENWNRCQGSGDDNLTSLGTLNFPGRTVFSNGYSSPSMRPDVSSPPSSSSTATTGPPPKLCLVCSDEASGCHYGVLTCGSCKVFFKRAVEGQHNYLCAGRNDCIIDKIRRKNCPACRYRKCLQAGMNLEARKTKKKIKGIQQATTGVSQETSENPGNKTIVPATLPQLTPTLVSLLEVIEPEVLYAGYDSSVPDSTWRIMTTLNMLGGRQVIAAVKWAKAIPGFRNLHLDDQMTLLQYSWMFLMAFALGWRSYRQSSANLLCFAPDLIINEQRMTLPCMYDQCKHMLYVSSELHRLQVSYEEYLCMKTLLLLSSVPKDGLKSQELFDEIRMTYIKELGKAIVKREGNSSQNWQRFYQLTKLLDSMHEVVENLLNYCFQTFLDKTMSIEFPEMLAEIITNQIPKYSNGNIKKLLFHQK
Experiment: Target selectivity counterscreen, Glucocorticoid Receptor reporter assay
Type: cell-based
Details: receptor agonist at ~EC80
Protocol: Target Selectivity Assays To determine species selectivity, a Mouse PPARα Reporter Assay System was used (Indigo Biosciences, Cat. #M00111). Activity of test compounds to antagonize or agonize other isoforms of human PPAR, for example β/δ and γ, were assessed using the corresponding kits from Indigo Biosciences (Cat. #IB00121 and #IB00101, respectively). […]
Property: pIC50
Answers are plain numbers, as −log10 of the molar value.

Which pIC50 value belongs to CCOc1ccc(-c2cccc(CCCc3nn(Cc4ccc(C(C)(C)C)cc4)c(=O)n3CC)c2)cc1CC(=O)O ? 4.74

###

Exercise: for every item that follows, state its recorded pIC50.
Target: Human PPARα (Homo sapiens, UniProt Q07869)
Construct: host or cells: proprietary non-human mammalian cells
Sequence (Q07869 1-468): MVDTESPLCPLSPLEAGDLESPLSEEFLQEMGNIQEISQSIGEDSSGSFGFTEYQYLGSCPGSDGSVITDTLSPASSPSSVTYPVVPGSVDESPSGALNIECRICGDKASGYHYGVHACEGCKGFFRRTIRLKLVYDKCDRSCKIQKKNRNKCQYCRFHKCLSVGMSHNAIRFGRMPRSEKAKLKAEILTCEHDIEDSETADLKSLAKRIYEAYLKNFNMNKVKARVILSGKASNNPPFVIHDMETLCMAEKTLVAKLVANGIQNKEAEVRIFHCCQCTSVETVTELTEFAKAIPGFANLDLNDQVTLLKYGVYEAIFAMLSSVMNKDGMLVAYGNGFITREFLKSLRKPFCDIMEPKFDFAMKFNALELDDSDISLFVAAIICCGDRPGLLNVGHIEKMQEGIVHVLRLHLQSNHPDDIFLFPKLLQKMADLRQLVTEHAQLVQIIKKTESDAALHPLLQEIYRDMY
Assay: Human PPARα Reporter Assay (luciferase)
Format: cell-based
Conditions: antagonist activity, luciferase reporter cells, overnight incubation; read-out: Human PPARα Reporter Assay-Luciferase IC50
Answers are plain numbers, as −log10 of the molar value.

// worked examples, pIC50 included
- CCn1c(CCCc2cccc(-c3ccc(F)c(CC(=O)O)c3)c2)nn(Cc2ccc(C(C)(C)C)cc2)c1=O: 7.08
- CCn1c(CCCc2cccc(-c3ccc(CC(=O)O)cc3)c2)nn(Cc2ccc(C(C)(C)C)cc2)c1=O: 6.49
- CCOc1ccc(-c2cccc(CCCc3nn(Cc4ccc(C(C)(C)C)cc4)c(=O)n3CC)c2)cc1C1(C(=O)O)CC1: 6.86
- CCCOc1ccc(-c2cccc(CCCc3nn(Cc4ccc(C(C)(C)C)cc4)c(=O)n3CC)c2)cc1CC(=O)O: 7.32
- CCn1c(CCCc2cccc(-c3ccc(OC)c(CC(=O)O)c3)c2)nn(Cc2ccc(C(C)(C)C)cc2)c1=O: 6.71
- CCn1c(CCCc2cccc(-c3ccc(OC)c(C(=O)O)c3)c2)nn(Cc2ccc(C(C)(C)C)cc2)c1=O: 6.26

Provide pIC50 values for the following items, in order.
1. CCn1c(CCC(F)(F)c2cccc(-c3ccc(NS(=O)(=O)c4ccccc4)cn3)c2)nn(Cc2ccc(C(C)(C)C)cc2)c1=O
2. CCn1c(CCCc2cccc(-c3ccc(OCc4ccccc4)c(CC(=O)O)c3)c2)nn(Cc2ccc(C(C)(C)C)cc2)c1=O
3. CCOc1cc(-c2cccc(CCCc3nn(Cc4ccc(C(C)(C)C)cc4)c(=O)n3CC)c2)ccc1CC(=O)O
4. CCn1c(CCCc2cccc(-c3cccc(C4(C(=O)O)CC4)c3)c2)nn(Cc2ccc(C(C)(C)C)cc2)c1=O
5. CCCOc1cc(-c2cccc(CCCc3nn(Cc4ccc(C(C)(C)C)cc4)c(=O)n3CC)c2)ccc1CC(=O)O
6. CCn1c(CCCc2cccc(-c3cccc(CC(=O)O)c3)c2)nn(Cc2ccc(C(C)(C)C)cc2)c1=O

6.18
6.91
7.23
7.11
7.44
6.46

Provide pIC50 values for the following items, in order.
1. CCn1c(CCCc2cccc(-c3ccc(NS(=O)(=O)c4ccccc4)cn3)c2)nn(Cc2ccc(C(C)(C)C)cc2)c1=O
2. CCn1c(CCCc2cccc(-c3ccc(CC(=O)O)c(OC)c3)c2)nn(Cc2ccc(C(C)(C)C)cc2)c1=O

6.52
6.85

###

molecular target: Thyroid Receptor β (Homo sapiens, UniProt P10828); assay: Target selectivity counterscreen, Thyroid Receptor β reporter assay; conditions: receptor agonist at ~EC80
Sequence (P10828 whole entry): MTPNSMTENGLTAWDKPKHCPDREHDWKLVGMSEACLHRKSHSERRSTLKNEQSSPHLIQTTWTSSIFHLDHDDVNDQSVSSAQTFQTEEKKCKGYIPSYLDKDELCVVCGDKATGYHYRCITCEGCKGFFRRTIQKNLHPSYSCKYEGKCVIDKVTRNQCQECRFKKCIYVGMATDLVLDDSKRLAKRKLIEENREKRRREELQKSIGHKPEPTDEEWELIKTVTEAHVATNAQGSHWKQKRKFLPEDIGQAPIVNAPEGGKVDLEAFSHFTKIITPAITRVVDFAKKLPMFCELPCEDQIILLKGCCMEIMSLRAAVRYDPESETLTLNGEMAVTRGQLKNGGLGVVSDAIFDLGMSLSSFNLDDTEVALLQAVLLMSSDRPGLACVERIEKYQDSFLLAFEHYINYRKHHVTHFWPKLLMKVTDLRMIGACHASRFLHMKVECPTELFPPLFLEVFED
Property: IC50
Record the result as number plus unit.

Which IC50 value belongs to CCOc1ccc(-c2cccc(CCCc3nn(Cc4ccc(C(C)(C)C)cc4)c(=O)n3CC)c2)cc1CC(=O)O ? 30.8 µM

Reference for the values: patent US9676754B2
